Target: MMP-14 (Homo sapiens, UniProt P50281)
MEASURED ATTRIBUTE: pIC50
Just so you know, pIC50 here is -log10 of the concentration in molar units; reply with that number alone.

Prompt: Determine its reported pIC50: NCCCCCC(=O)N1C[C@H](NS(=O)(=O)c2ccc(Oc3ccccc3)cc2)[C@@H](S)C1 (relative stereo)
Completion: 8.37

Prompt: Give the measured pIC50 for CNC(=O)[C@H](Cc1c[nH]c2ccccc12)NC(=O)[C@@H](CC(=O)NO)CC(C)C [GM6001, reference compound]
Completion: 9.30

* * *

Target: MMP-9 (Homo sapiens, UniProt P14780)
Construct: human neutrophil gelatinase B was purified from human blood
Sequence (P14780 94-707): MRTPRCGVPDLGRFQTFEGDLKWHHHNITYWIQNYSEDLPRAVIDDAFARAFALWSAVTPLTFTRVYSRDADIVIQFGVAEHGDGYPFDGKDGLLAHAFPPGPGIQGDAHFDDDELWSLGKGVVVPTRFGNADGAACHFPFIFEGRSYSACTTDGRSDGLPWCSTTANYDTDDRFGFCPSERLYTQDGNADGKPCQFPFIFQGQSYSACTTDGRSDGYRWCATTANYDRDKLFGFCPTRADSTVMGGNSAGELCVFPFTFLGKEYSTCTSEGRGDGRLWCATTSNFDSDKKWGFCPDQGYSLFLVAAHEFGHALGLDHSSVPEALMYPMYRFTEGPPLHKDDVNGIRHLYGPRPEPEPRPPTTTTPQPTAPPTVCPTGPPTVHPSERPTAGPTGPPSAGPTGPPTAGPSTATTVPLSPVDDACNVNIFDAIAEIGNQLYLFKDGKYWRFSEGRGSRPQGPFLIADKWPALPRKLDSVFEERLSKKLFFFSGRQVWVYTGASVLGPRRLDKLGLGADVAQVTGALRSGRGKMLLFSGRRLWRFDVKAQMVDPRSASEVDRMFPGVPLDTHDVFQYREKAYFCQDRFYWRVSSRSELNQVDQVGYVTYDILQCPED
Assay: Fluorogenic substrate enzyme inhibition assay, MMP-9
Conditions: 25°C, HEPES pH 7.5, 5 μM TCEP, fluorogenic substrate 1 μM
MEASURED ATTRIBUTE: IC50 (nM)
Give a bare numeral; the unit nM is implied.

Prompt: Indicate its recorded IC50; the compound in question is NCCCCCC(=O)N1C[C@H](NS(=O)(=O)c2ccc(Oc3ccccc3)cc2)[C@@H](S)C1 (relative stereo) [YHJ-7-52]
Completion: 87

* * *

Molecular target: MMP-2 (Homo sapiens, UniProt P08253)
Sequence (P08253 110-660): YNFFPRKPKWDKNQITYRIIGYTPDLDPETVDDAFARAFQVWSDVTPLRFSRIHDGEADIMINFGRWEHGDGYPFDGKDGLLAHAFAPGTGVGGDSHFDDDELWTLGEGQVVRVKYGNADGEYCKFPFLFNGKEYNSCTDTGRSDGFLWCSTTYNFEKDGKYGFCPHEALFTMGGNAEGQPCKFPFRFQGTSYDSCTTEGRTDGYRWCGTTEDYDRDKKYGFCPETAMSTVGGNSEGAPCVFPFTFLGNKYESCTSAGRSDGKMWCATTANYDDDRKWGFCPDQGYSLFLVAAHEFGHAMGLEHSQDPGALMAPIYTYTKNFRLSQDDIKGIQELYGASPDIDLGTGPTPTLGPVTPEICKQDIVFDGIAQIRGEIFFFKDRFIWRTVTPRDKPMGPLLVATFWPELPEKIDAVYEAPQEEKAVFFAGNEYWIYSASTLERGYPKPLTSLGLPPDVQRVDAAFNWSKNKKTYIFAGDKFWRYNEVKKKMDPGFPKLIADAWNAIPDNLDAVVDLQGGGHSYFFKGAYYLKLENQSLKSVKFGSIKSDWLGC
MEASURED ATTRIBUTE: IC50

Prompt: Supply reported IC50 belonging to this compound: NCCCCCC(=O)N1C[C@H](NS(=O)(=O)c2ccc(Oc3ccccc3)cc2)[C@@H](O)C1 (relative stereo) [YHJ-7-82]
Completion: > 100 µM

* * *

Biological target: MMP-7 (Homo sapiens)
Sequence (P09237 95-267): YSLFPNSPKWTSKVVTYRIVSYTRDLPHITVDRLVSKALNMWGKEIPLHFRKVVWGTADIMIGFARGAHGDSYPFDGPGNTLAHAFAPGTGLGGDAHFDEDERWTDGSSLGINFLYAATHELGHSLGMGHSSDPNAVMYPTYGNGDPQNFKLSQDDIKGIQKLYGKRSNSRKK
MEASURED ATTRIBUTE: IC50 (nM)
# number only, unit nM dropped from output

Prompt: Identify measured IC50 associated with CNC(=O)[C@H](Cc1c[nH]c2ccccc12)NC(=O)[C@@H](CC(=O)NO)CC(C)C [GM6001, reference compound]
Completion: 2
